Entries annotated with measured viability at 6.25 µM
test: Cytotoxicity against human HEK293-EBNA cells assessed as cell viability at 6.25 uM by MTS/PMS assay; type: cell-based; conditions: read-out: Activity
READOUT: viability at 6.25 µM (%)

COMPOUND	READOUT	ASSAY VALUE
Cc1ccc(S(=O)(=O)n2cc3c4c2C(=O)c2[nH]nc(-c5ccccc5)c2C4=NCC3)cc1	viability at 6.25 µM	95
Cc1ccc(S(=O)(=O)n2ccc3c2C(=O)c2c4c(cn2S(=O)(=O)c2ccc(C)cc2)CCN=C34)cc1	viability at 6.25 µM	88
Cc1ccc(S(=O)(=O)n2cc3c4c2C(=O)c2cn[nH]c2C4=NCC3)cc1	viability at 6.25 µM	106
Cc1ccc(S(=O)(=O)n2cc3c4c2C(=O)c2n[nH]cc2C4=NCC3)cc1	viability at 6.25 µM	91
Cc1ccc(S(=O)(=O)n2ccc3c2C(=O)C(NCCc2c[nH]c4ccccc24)=CC3=O)cc1	viability at 6.25 µM	98
Cc1ccc(S(=O)(=O)n2ccc3c2C(=O)c2c(c(-c4c[nH]c5ccccc45)cn2C)C3=O)cc1	viability at 6.25 µM	96
Cc1ccc(S(=O)(=O)n2cc3c4c2C(=O)c2c(cnn2C)C4=NCC3)cc1	viability at 6.25 µM	89
Cc1ccc(S(=O)(=O)n2cc3c4c2C(=O)c2[nH]nc(N5C(=O)C(O)c6ccccc65)c2C4=NCC3)cc1 (centres undefined)	viability at 6.25 µM	107
Cc1ccc(S(=O)(=O)n2cc3c4c2C(=O)c2c(-c5ccccc5)n[nH]c2C4=NCC3)cc1	viability at 6.25 µM	126

====

experiment: Cytotoxicity against human HEK293-EBNA cells assessed as cell viability at 12.5 uM by MTS/PMS assay; assay type: cell-based; conditions: read-out: Activity
Hi! Just check whether viability at 12.5 µM is below 90%. Below gives T, equal or above gives F.

MOLECULE	ASSIGNED LABEL
Cc1ccc(S(=O)(=O)n2cc3c4c2C(=O)c2cn[nH]c2C4=NCC3)cc1	F
Cc1ccc(S(=O)(=O)n2cc3c4c2C(=O)c2c(-c5ccccc5)n[nH]c2C4=NCC3)cc1	F
O=C1c2[nH]cc3c2C(=NCC3)c2c(-c3ccccc3)n[nH]c21	F
Cc1ccc(S(=O)(=O)n2ccc3c2C(=O)c2[nH]c(C(=O)c4ccccc4)c(C(=O)c4ccccc4)c2C3=O)cc1	F
Cc1ccc(S(=O)(=O)n2cc3c4c2C(=O)c2c(cnn2C)C4=NCC3)cc1	T
Cc1ccc(S(=O)(=O)n2ccc3c2C(=O)c2[nH]cc4c2C3=NCC4)cc1	F
Cc1ccc(S(=O)(=O)n2ccc3c2C(=O)c2c4c(cn2S(=O)(=O)c2ccc(C)cc2)CCN=C34)cc1	T
Cc1ccc(S(=O)(=O)n2ccc3c2C(=O)c2c(-c4c[nH]c5ccccc45)cn(C)c2C3=O)cc1	F
Cc1ccc(S(=O)(=O)n2cc3c4c2C(=O)c2n[nH]cc2C4=NCC3)cc1	F
Cc1ccc(S(=O)(=O)n2ccc3c2C(=O)c2c(c(-c4c[nH]c5ccccc45)cn2C)C3=O)cc1	F
Cc1ccc(S(=O)(=O)n2cc3c4c2C(=O)c2[nH]nc(-c5ccccc5)c2C4=NCC3)cc1	T
Cc1ccc(S(=O)(=O)n2cc3c4c2C(=O)c2[nH]nc(N5C(=O)C(O)c6ccccc65)c2C4=NCC3)cc1 (stereo unspecified)	T
Cc1ccc(S(=O)(=O)n2ccc3c2C(=O)c2[nH]c(C(=O)c4c[nH]c5ccccc45)c(C(=O)c4c[nH]c5ccccc45)c2C3=O)cc1	T
Cc1ccc(S(=O)(=O)n2ccc3c2C(=O)C(NCCc2c[nH]c4ccccc24)=CC3=O)cc1	F
Cc1ccc(S(=O)(=O)n2ccc3c2C(=O)C=C(NCCc2c[nH]c4ccccc24)C3=O)cc1	T

====

Entries annotated with measured inhibition
biological target: Indoleamine 2,3-dioxygenase 1 (Homo sapiens) (UniProt P14902); experiment: Inhibition of human IDO1 expressed in HEK293-EBNA cells assessed as reduction in kynurenine formation using tryptophan as substrate at 6.25 uM incubated for 24 hrs by HPLC analysis relative to control; assay type: cell-based
Sequence (P14902 whole entry, looked up): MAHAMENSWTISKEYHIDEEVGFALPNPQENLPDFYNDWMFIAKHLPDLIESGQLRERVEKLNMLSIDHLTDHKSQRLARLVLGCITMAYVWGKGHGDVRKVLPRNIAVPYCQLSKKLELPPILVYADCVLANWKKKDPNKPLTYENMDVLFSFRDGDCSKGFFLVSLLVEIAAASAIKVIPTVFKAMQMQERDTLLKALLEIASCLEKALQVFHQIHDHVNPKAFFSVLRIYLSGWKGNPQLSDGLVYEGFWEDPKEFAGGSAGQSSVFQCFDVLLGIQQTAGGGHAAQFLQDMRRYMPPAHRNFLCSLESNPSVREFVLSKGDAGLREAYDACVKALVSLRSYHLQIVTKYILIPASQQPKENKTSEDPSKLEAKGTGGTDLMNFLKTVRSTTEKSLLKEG

COMPOUND	inhibition / %
Cc1ccc(S(=O)(=O)n2cc3c4c2C(=O)c2[nH]nc(-c5ccccc5)c2C4=NCC3)cc1	12
Cc1ccc(S(=O)(=O)n2cc3c4c2C(=O)c2c(cnn2C)C4=NCC3)cc1	16
Cc1ccc(S(=O)(=O)n2ccc3c2C(=O)C(NCCc2c[nH]c4ccccc24)=CC3=O)cc1	9
Cc1ccc(S(=O)(=O)n2ccc3c2C(=O)c2[nH]c(C(=O)c4ccccc4)c(C(=O)c4ccccc4)c2C3=O)cc1	58
O=C1c2c[nH]nc2C2=NCCc3c[nH]c1c32	2
Cc1ccc(S(=O)(=O)n2ccc3c2C(=O)c2c(-c4c[nH]c5ccccc45)cn(C)c2C3=O)cc1	20
Cc1ccc(S(=O)(=O)n2cc3c4c2C(=O)c2c(-c5ccccc5)n[nH]c2C4=NCC3)cc1	19
Cc1ccc(S(=O)(=O)n2cc3c4c2C(=O)c2[nH]nc(N5C(=O)C(O)c6ccccc65)c2C4=NCC3)cc1 (stereo not given)	3
Cc1ccc(S(=O)(=O)n2ccc3c2C(=O)c2c(c(-c4c[nH]c5ccccc45)cn2C)C3=O)cc1	12
Cc1ccc(S(=O)(=O)n2cc3c4c2C(=O)c2cn[nH]c2C4=NCC3)cc1	12
Cc1ccc(S(=O)(=O)n2ccc3c2C(=O)c2[nH]c(C(=O)c4c[nH]c5ccccc45)c(C(=O)c4c[nH]c5ccccc45)c2C3=O)cc1	22
O=C1c2[nH]cc3c2C(=NCC3)c2c(-c3ccccc3)n[nH]c21	4
Cc1ccc(S(=O)(=O)n2ccc3c2C(=O)C=C(NCCc2c[nH]c4ccccc24)C3=O)cc1	28
Cc1ccc(S(=O)(=O)n2cc3c4c2C(=O)c2n[nH]cc2C4=NCC3)cc1	9
Cc1ccc(S(=O)(=O)n2ccc3c2C(=O)c2[nH]cc4c2C3=NCC4)cc1	-3

====

target: Indoleamine 2,3-dioxygenase 1 (Homo sapiens); assay: Inhibition of human IDO1 expressed in HEK293-EBNA cells assessed as reduction in kynurenine formation using tryptophan as substrate at 25 uM incubated for 24 hrs by HPLC analysis relative to control; type: cell-based
Label t for high-side inhibition (at or above 20%) and f for low-side inhibition (below it).

MOLECULE	ASSIGNED LABEL
Cc1ccc(S(=O)(=O)n2cc3c4c2C(=O)c2[nH]nc(-c5ccccc5)c2C4=NCC3)cc1	f
Cc1ccc(S(=O)(=O)n2cc3c4c2C(=O)c2c(-c5ccccc5)n[nH]c2C4=NCC3)cc1	t
Cc1ccc(S(=O)(=O)n2ccc3c2C(=O)c2c(-c4c[nH]c5ccccc45)cn(C)c2C3=O)cc1	t
Cc1ccc(S(=O)(=O)n2ccc3c2C(=O)c2c(c(-c4c[nH]c5ccccc45)cn2C)C3=O)cc1	t
Cc1ccc(S(=O)(=O)n2ccc3c2C(=O)C(NCCc2c[nH]c4ccccc24)=CC3=O)cc1	f
Cc1ccc(S(=O)(=O)n2cc3c4c2C(=O)c2cn[nH]c2C4=NCC3)cc1	f
Cc1ccc(S(=O)(=O)n2ccc3c2C(=O)C=C(NCCc2c[nH]c4ccccc24)C3=O)cc1	t
Cc1ccc(S(=O)(=O)n2ccc3c2C(=O)c2[nH]cc4c2C3=NCC4)cc1	f
Cc1ccc(S(=O)(=O)n2cc3c4c2C(=O)c2c(cnn2C)C4=NCC3)cc1	t
O=C1c2c[nH]nc2C2=NCCc3c[nH]c1c32	f
Cc1ccc(S(=O)(=O)n2ccc3c2C(=O)c2[nH]c(C(=O)c4ccccc4)c(C(=O)c4ccccc4)c2C3=O)cc1	t

====

Entries annotated with measured inhibition
molecular target: Indoleamine 2,3-dioxygenase 1 (Homo sapiens) (UniProt P14902); assay: Inhibition of human IDO1 expressed in HEK293-EBNA assessed as reduction in kynurenine formation using tryptophan as substrate at 3.12 uM incubated for 24 hrs by HPLC analysis relative to control; format: cell-based
READOUT: inhibition (%)

MOLECULE	READOUT	ASSAY VALUE
Cc1ccc(S(=O)(=O)n2cc3c4c2C(=O)c2c(cnn2C)C4=NCC3)cc1	inhibition	11
Cc1ccc(S(=O)(=O)n2cc3c4c2C(=O)c2[nH]nc(-c5ccccc5)c2C4=NCC3)cc1	inhibition	10
O=C1c2[nH]cc3c2C(=NCC3)c2c(-c3ccccc3)n[nH]c21	inhibition	4
Cc1ccc(S(=O)(=O)n2ccc3c2C(=O)c2[nH]c(C(=O)c4c[nH]c5ccccc45)c(C(=O)c4c[nH]c5ccccc45)c2C3=O)cc1	inhibition	16
Cc1ccc(S(=O)(=O)n2ccc3c2C(=O)c2[nH]c(C(=O)c4ccccc4)c(C(=O)c4ccccc4)c2C3=O)cc1	inhibition	52
Cc1ccc(S(=O)(=O)n2ccc3c2C(=O)c2[nH]cc4c2C3=NCC4)cc1	inhibition	0
Cc1ccc(S(=O)(=O)n2ccc3c2C(=O)C(NCCc2c[nH]c4ccccc24)=CC3=O)cc1	inhibition	2
Cc1ccc(S(=O)(=O)n2ccc3c2C(=O)c2c(c(-c4c[nH]c5ccccc45)cn2C)C3=O)cc1	inhibition	8
